Data provenance: patent US10597388B2

Kindly state Plant response rating, Nutsedge, Yellow for each of the entries shown.
# Tested on: nutsedge, yellow (yellow nutsedge, Cyperus esculentus)
# Test protocol: Test C greenhouse herbicide test, pre- and postemergence
# Type: in vivo
# Condition context: Preemergence, 31 g ai/ha; scale 0 to 100, 0 is no effect, 100 is complete control
Respond numerically, and do not add a unit to the figure.

Prompt: Could you share which Plant response rating, Nutsedge, Yellow value was measured for COC(=O)Oc1cnn(C)c(=O)c1-c1c(C)sc2ccccc12 ?
Completion: 0

Prompt: Same lookup for Cc1cc(C)c2sc(C)c(-c3c(O)c(C)nn(C)c3=O)c2c1 , please.
Completion: 30

Prompt: Same lookup for Cc1nn(C)c(=O)c(-c2c(C)sc3ccc(Br)cc23)c1O , please.
Completion: 55

Prompt: Same lookup for CCC(=O)Oc1c(C)nn(C)c(=O)c1-c1ccc(Br)c2ccccc12 , please.
Completion: 30

Prompt: Same lookup for CCC(=O)Oc1c(OC)nn(C)c(=O)c1-c1c(C)sc2ccc(Cl)cc12 , please.
Completion: 10

Prompt: Same lookup for CC(=O)Oc1c(C)nn(C)c(=O)c1-c1c(C)sc2ccc(Cl)cc12 , please.
Completion: 35

Prompt: Same lookup for COC(=O)Oc1c(OC)nn(C)c(=O)c1-c1c(C)ccc2ccccc12 , please.
Completion: 5

Prompt: Same lookup for CCc1oc2ccc(C)cc2c1-c1c(O)c(C)nn(C)c1=O , please.
Completion: 0

Prompt: Same lookup for Cc1nn(C)c(=O)c(-c2ccc(Br)c3ccccc23)c1O , please.
Completion: 15

Prompt: Same lookup for Cc1ccc2ccccc2c1-c1c(OC(=O)OC(C)C)c(C)nn(C)c1=O , please.
Completion: 10

Prompt: Same lookup for CC(=O)Oc1c(C)nn(C)c(=O)c1-c1c(C)cc(C)c2ccccc12 , please.
Completion: 20

---

# System: foxtail, giant (giant foxtail, Setaria faberii)
# Test protocol: Test A greenhouse herbicide test, pre- and postemergence
# Format: in vivo
# Condition context: Postemergence, 125 g ai/ha; 0 to 100 scale where 0 is no effect and 100 is complete control
Recorded metric: Plant response rating, Foxtail, Giant
Respond numerically, and do not add a unit to the figure.

Prompt: Could you share which Plant response rating, Foxtail, Giant value was measured for Cc1ccc2oc(C)c(-c3c(O)c(C(C)C)nn(C)c3=O)c2c1 ?
Completion: 0

Prompt: Same lookup for Cc1ccc2ccccc2c1-c1c(OC(=O)OC(C)C)c(C)nn(C)c1=O , please.
Completion: 30

Prompt: Same lookup for CCc1nn(C)c(=O)c(-c2c(C)oc3ccc(C)cc23)c1O , please.
Completion: 0

Prompt: Same lookup for CCOc1ccc2oc(CC)c(-c3c(O)c(C)nn(C)c3=O)c2c1 , please.
Completion: 10

Prompt: Same lookup for CC(=O)Oc1c(Cl)nn(C)c(=O)c1-c1c(C)sc2ccc(Cl)cc12 , please.
Completion: 70

Prompt: Same lookup for COC(=O)Oc1c(OC)nn(C)c(=O)c1-c1c(C)sc2ccc(Cl)cc12 , please.
Completion: 20

Prompt: Same lookup for CCC(=O)Oc1c(C)nn(C)c(=O)c1-c1ccc(Cl)c2ccccc12 , please.
Completion: 80

Prompt: Same lookup for Cc1sc2ccccc2c1-c1c(O)cnn(C)c1=O , please.
Completion: 50

Prompt: Same lookup for CCc1nn(CC)c(=O)c(-c2c(C)oc3ccc(C)cc23)c1O , please.
Completion: 0
